# Target Desc: full length human Shh expressed on the cell surface (human, UniProt Q15465 24-462)
# Test Details: cell-based or functional assay
Returns one of fulfilled or not fulfilled; fulfilled when % Inh of Gli1 reporter, Co-Culture N = 1 is >= 40%.

>>> label("1H10 (antibody, V domains shown, fully human XenoMouse hybridoma antibody; tested as hybridoma supernatant and as purified antibody; also called MAb 1H10) VH: QVQLVESGGGVVQPGRSLRLSCAASGFTFSSYGMHWVRQAPGKGLEWVAVIWNDGSNEYYADSVKGRFTISRDNSKNTLYLQMNSLRAEDTAVYYCARDLYYYGSGSPFDDWGQGTLVTVSS VL: EIVMTQSPGTLSVSPGERATLSCRASQSVGSNLAWYQQKPGQAPRLLIFGVSIRATGVPARFSGSGSGTEFTLTISSLQSEDFAVYYCQQYNDWPRPGFGGGTKVEIK")
"not fulfilled"
>>> label("1H12 (antibody, V domains shown, fully human XenoMouse hybridoma antibody; tested as hybridoma supernatant and as purified antibody; also called MAb 1H12) VH: QVQLVQSGAEVKKPGASVKVSCKASGYTFTGYYMHWVRQAPGQGLEWVGWFNPNSGGTNCAQKFQGRVTMTRDTSISTAYMELSRLRSDDTAVYYCAREAVESYYYGLDVWGQGTTVTVSS VL: QSVVTQPPSASGTPGQRITISCSGSSSNIGSNYVYWYHQLPGSAPNLLIYRNNQRPSGVPDRFSGSKSGTSASLAISGLRSEDEADYFCAVWDDSLRGVVFGGGTKLTVL")
"fulfilled"
>>> label("1C8 (antibody, V domains shown, fully human XenoMouse hybridoma antibody; tested as hybridoma supernatant and as purified antibody; also called MAb 1C8) VH: EVQLVESGGGLIQPGGSLRLSCAVSGFTVSSNCMNWVRQAPGKGLEWVSVIYSGGKTAYADSVKGRFTISRDNSKNTLCLQMNSLRAEDTAVYYCARDSSMVVGLGYFDLWGRGTLVTVSS VL: SYELTQPPSVSVSPGLTASITCSGDKLGYKYASWYQQKPGQSPVLVIYQDIKRPSGIPERFSGSNSGNTATLTISGTQAMDEADYYCQAWDSSTVVFGGGTKLTVL")
"not fulfilled"
>>> label("1A5 (antibody, V domains shown, fully human XenoMouse hybridoma antibody; tested as hybridoma supernatant and as purified antibody; also called MAb 1A5) VH: EVQVVESGGDLIQPGGSLRLSCVASGFTVSSNYMNWVRQAPGKGLEWVSVIYSGGNTYYADSVKGRFTISRDNSKNTLYLQMNSLRAEDTAVYYCARDSSVVVGLGYFDLWGRGTLVTVSS VL: SYELTQPPSVSVSPGQTASITCSGDKLGANYASWYQQKPGQSPVLVIFQDTKRPSGIPERFSGSNSGNTATLTISGTQAMDEADYYCQAWDFSTVIFGGGTKLTVL")
"not fulfilled"
>>> label("1G1 (antibody, V domains shown, fully human XenoMouse hybridoma antibody; also called MAb 1G1) VH: EVQLVESGGGLVKPGGSLRLSCAASGFTFSSYSMNWVRQAPGKGLEWVSSFSSSSSYIYYADSVKGRFTISRDNAKNSLYLQMNSLRAEDTAVYYCARDRGDYVDYYYGMDVWGQGTTVTVSS VL: SYELTQPPSVSVSPGQTASITCSGDKLDYKYICWYQQKPGQSPVLVIYQDIKRPSGIPERFSGSNSGNTATLTISGTQAMDEADYYCQAWDSNTPLVFGGGTKLTVL")
"fulfilled"
>>> label("4B6 (antibody, V domains shown, fully human XenoMouse hybridoma antibody; tested as hybridoma supernatant and as purified antibody; also called MAb 4B6) VH: QVQLVESGGGVVQPGRSLRLSCAASGFTFSTYGMHWVRQAPGKGLEWVAVIWYDGSNEYYADSVKGRFTISRDNSKNTLYLQMNSLRAEDTAVYYCARDLYYYGSGSPFDYWGQGTLVTVSS VL: EIVMTQSPATLSVSPGERATLSCRASQSVSSNLAWYQQKPGQAPRLLIFGISIRATGIPARFSGSGSGTEFTLTISSLQSEDFAVYYCQQYNDWPRPGFGGGTRVEIK")
"not fulfilled"
>>> label("3H8 (antibody, V domains shown, fully human XenoMouse hybridoma antibody; also called MAb 3H8) VH: QVQLVESGGGVVQPGRSLRLSCAASGFTFSTYGMHWVRQAPGKGLEWVAVIWYDGSNKYYADSVKGRFTISRDNSKNTLNLQMNSLRAEDTAVYYCARDLYYYGSGSPFDYWGQGTLVTVSS VL: EIVMTQSPATLSVSPGERATLSCRASQSVSSNLAWYQQKPGQAPRLLIFGVSIRATGIPARFSGSGSGTEFTLTISSLQSEDFAVYYCQQYNNWPRPGFGGGTKVEIK")
"not fulfilled"
